# assay.summary: Human HepG2 cell viability assay in 384 well format
# Assay type: toxicity, cell-based
# Set-up: dose 125 nL, time 70.5 hour; concentration not given beside the values
# assay.conditions: HepG2 cells, read-out: Inhibition
result.type: cytotoxicity at 70.5 h (%)
# unit: % | format: bare number

Please review the entries below; each comes with its answer.
{"compound": "CS(=O)(=O)NCCC(=O)NCc1cccnc1-n1cnc2ccccc21", "result.type": "cytotoxicity at 70.5 h", "reading": -12.6}
{"compound": "CCCn1ncc(C(=O)NC2CCN(CC3CCCO3)CC2)c1C (configuration not stated)", "result.type": "cytotoxicity at 70.5 h", "reading": 25.6}
{"compound": "CS(=O)(=O)NC1CCN(Cc2ccc(OCc3ccccn3)cc2)CC1", "result.type": "cytotoxicity at 70.5 h", "reading": -5.51}
{"compound": "N#Cc1ccc(CCC(=O)N2CCCC(n3cncn3)C2)cc1 (configuration not stated)", "result.type": "cytotoxicity at 70.5 h", "reading": -8.59}
{"compound": "CC(Cn1cccn1)NC(=O)N1CCN(Cc2cccs2)CC1 (configuration not stated)", "result.type": "cytotoxicity at 70.5 h", "reading": 17}

cytotoxicity at 70.5 h recorded for this compound, COc1cc2[nH]c(=O)c(CN3CCCC3C)cc2c(OC)c1OC (configuration not stated) , is -6.4

cytotoxicity at 70.5 h recorded for this compound, COc1ccc(C(=O)N2CCC3(CCC(=O)N(C(C)C)C3)CC2)cc1C , is -6.63
